molecular target: HLA-A*0201 (human); assay: competition with 125I-labelled standard peptide for purified HLA, gel filtration; ratio = IC50 standard / IC50 test peptide
measuredAttribute: binding affinity ratio (ratio to standard peptide)
Just the number, please, no unit after it.

QVRGGMVFEL (modifications not checked) [PSM peptide …, position 578, 10 amino acids] | 0.0001
QLAGAKGVI (modifications not checked) [PSM peptide …, position 218, 9 amino acids] | 0.0001
QVYIRSTDV (modifications not checked) [PAP peptide …, position 101, 9 amino acids] | 0.0002

Lab note: next binder to report on.
QUERY: Can you look up the measured binding affinity ratio (ratio to standard peptide) of QIPSYKKLI (modifications not checked) [PAP peptide …, position 276, 9 amino acids] for me?
RESULT: 0.0002
